assayed_target: HCV NS5B RdRp genotype 1b (Hepatitis C virus genotype 1b)
Construct: The protein was expressed with an 18 amino acid C-terminal truncation to enhance the solubility; made in house; host or cells: E. coli BL21(DE3), pET21a vector
procedure_summary: Standard HCV NS5B RdRp enzyme assay
Assay type: biochemical
reported_conditions: Table 1a; HCV NS5B RdRp genotype 1b; read-out: IC50
Method: HCV NS5B RdRp cloning, expression, and purification. The cDNA encoding the NS5B protein of HCV, genotype 1b, was cloned into the pET21a expression vector. The protein was expressed with an 18 amino acid C-terminal truncation to enhance the solubility. […] Standard HCV NS5B RdRp enzyme assay. […] Plates were read on a Packard Top Count NXT after >1 hr incubation at room temperature. IC50 values for compounds were determined using seven different [I]. […]
pIC50: −log10 of the molar value.
Would you mind telling me the reported pIC50 of each entry?

Memo: CNC(=O)c1c(-c2ccc(F)cc2)oc2ccc(-c3cc(C)c(Br)cc3C)cc12 , reported pIC50: < 5.00

Memo: CNC(=O)c1c(-c2ccc(F)cc2)oc2ccc(-c3cccc(C(=O)Nc4ccnc(C)c4)c3)cc12 , reported pIC50: 5.00 to 6.00

Memo: CNC(=O)c1c(-c2ccc(F)cc2)oc2ccc(-c3cccc(C(=O)N[C@H](C(N)=O)C(C)C)c3)cc12 , reported pIC50: 6.00 to 6.60

Memo: CNC(=O)c1c(-c2ccc(F)cc2)oc2ccc(-c3cccc(C(=O)N[C@@H]4CCc5ccc(O)cc54)c3)cc12 , reported pIC50: < 5.86

Memo: CCN1CCN(C(=O)c2cccc(-c3ccc4oc(-c5ccc(F)cc5)c(C(=O)NC)c4c3)c2)CC1 , reported pIC50: 5.00 to 6.00

Memo: CNC(=O)c1c(-c2ccc(F)cc2)oc2ccc(-c3cc(C(=O)NCC(C)C)ccc3F)cc12 , reported pIC50: > 6.60

Memo: CNC(=O)c1c(-c2ccc(F)cc2)oc2ccc(-c3cccc(C#N)c3)cc12 , reported pIC50: < 5.00

Memo: CNC(=O)c1c(-c2ccc(F)cc2)oc2ccc(-c3ccc(C(=O)O)c(F)c3)cc12 , reported pIC50: 5.00 to 6.00

---

Would you mind telling me the reported pIC50 of each entry?
assayed_target: HCV NS5B RdRp genotype 1b (Hepatitis C virus genotype 1b, UniProt Q9WMX2)
Construct: The protein was expressed with an 18 amino acid C-terminal truncation to enhance the solubility; made in house; host or cells: E. coli BL21(DE3), pET21a vector
Sequence (Q9WMX2 2420-2992): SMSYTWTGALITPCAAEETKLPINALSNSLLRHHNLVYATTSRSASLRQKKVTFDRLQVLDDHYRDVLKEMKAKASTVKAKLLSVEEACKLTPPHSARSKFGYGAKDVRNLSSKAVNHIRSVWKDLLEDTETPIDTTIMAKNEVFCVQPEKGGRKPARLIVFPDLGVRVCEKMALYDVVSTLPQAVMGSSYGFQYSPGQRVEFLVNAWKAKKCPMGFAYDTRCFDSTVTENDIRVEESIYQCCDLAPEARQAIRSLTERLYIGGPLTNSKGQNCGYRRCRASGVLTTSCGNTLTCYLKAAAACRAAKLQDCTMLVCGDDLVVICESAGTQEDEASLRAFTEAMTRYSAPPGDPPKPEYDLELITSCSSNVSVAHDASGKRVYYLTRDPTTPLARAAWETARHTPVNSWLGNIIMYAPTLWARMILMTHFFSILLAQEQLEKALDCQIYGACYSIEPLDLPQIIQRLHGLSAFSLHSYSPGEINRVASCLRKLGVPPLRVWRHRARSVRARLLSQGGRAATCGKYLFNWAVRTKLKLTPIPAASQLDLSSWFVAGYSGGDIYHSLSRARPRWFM
procedure_summary: Standard HCV NS5B RdRp enzyme assay
Type: biochemical
reported_conditions: Table 1a; HCV NS5B RdRp genotype 1b; read-out: IC50
pIC50: −log10 of the molar value.

Memo: CNC(=O)c1c(-c2ccc(F)cc2)oc2ccc(-c3cccc(C(=O)N(C)CCO)c3)cc12 , reported pIC50: 5.00 to 6.00

Memo: CNC(=O)c1c(-c2ccc(F)cc2)oc2ccc(-c3cccc(C(=O)Nc4cccc(C(=O)O)c4O)c3)cc12 , reported pIC50: 6.00 to 6.60

Memo: CNC(=O)c1c(-c2ccc(F)cc2)oc2ccc(-c3cccc(NC(C)=O)c3)cc12 , reported pIC50: 5.00 to 6.00

Memo: CNC(=O)c1c(-c2ccc(F)cc2)oc2ccc(-c3ccc(F)cc3CN)cc12 , reported pIC50: < 5.00

Memo: CNC(=O)c1c(-c2ccc(F)cc2)oc2ccc(-c3ccc(F)cc3OCc3ccccc3)cc12 , reported pIC50: < 5.00

Memo: CNC(=O)c1c(-c2ccc(F)cc2)oc2ccc(-c3cccc(C(=O)Nc4ccnn4C)c3)cc12 , reported pIC50: 6.00 to 6.60

Memo: CNC(=O)c1c(-c2ccc(F)cc2)oc2ccc(-c3ccccc3/C=C/C(=O)O)cc12 , reported pIC50: 5.00 to 6.00

Memo: CNC(=O)c1c(-c2ccc(F)cc2)oc2ccc(-c3cccc(C(=O)NC4(CO)CCCC4)c3)cc12 , reported pIC50: > 6.60

Memo: CNC(=O)c1c(-c2ccc(F)cc2)oc2ccc(-c3cn[nH]c3)cc12 , reported pIC50: < 5.00

Memo: CNC(=O)c1c(-c2ccc(F)cc2)oc2ccc(-c3cccc(C(=O)NC(C)(C)C(F)(F)F)c3)cc12 , reported pIC50: > 6.60

Memo: CNC(=O)c1c(-c2ccc(F)cc2)oc2ccc(-c3cccc(S(C)(=O)=O)c3)cc12 , reported pIC50: < 5.00

Memo: CNC(=O)c1c(-c2ccc(F)cc2)oc2ccc(-c3ccc(C(=O)NC(C)(C)C)cc3)cc12 , reported pIC50: 5.00 to 6.00

Memo: C=CCNC(=O)C(C)(C)NC(=O)c1cccc(-c2ccc3oc(-c4ccc(F)cc4)c(C(=O)NC)c3c2)c1 , reported pIC50: 6.00 to 6.60
